Values from the supplement of paper PMC11208160

The reader will find reported recombinant barcode read abundance (log10) values listed item by item below.
experiment: recombinant barcode read abundance after kanamycin selection (control-corrected) (log10(CPM+1)); higher = more efficient recombination; sequences stand for … in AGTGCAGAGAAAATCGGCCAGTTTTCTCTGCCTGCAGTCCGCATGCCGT…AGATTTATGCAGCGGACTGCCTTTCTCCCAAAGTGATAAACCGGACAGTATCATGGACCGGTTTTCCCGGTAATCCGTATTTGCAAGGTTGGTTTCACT; site = the 11-nt target
parameter: recombinant barcode read abundance (log10)

| sequence string | observed |
| --- | --- |
| ACGCGAGCTTGGGTTCTAACCTGTTGCAG (site ACGCGAGCTCA) | 0.188 |
| CTCTAAACTTGGGTTCTAACCTGTTGCCA (site CTCTACACTTG) | 0.671 |
| ACTGTAACTTGGGTTCTAACCTGTTGCTT (site ACTATAACTAA) | 0.102 |
| TCAAATTCTTGGGTTCTAACCTGTTGCCT (site TCAGATTCTAG) | 0.108 |
| CCTTGGACTTGGGTTCTAACCTGTTGCCT (site CCTTGGACTAG) | 0.427 |

###

experiment: recombinant UMI read abundance after kanamycin selection (control-corrected) (log10(CPM+1)); higher = more efficient recombination; extreme values may be limits of the assay; sequences stand for … in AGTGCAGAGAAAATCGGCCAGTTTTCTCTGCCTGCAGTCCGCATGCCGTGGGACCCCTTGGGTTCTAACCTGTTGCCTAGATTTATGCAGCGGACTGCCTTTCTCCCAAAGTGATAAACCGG…AGGTTGGTTTCACT; site = the 11-nt donor
The reader will find reported recombinant UMI read abundance (log10) values listed item by item below.

| sequence string | recombinant UMI read abundance (log10) |
| --- | --- |
| TTTGCGGCATGGACCGGTTTTCCCGGTAATCCGTATTTGCA (site TTTGCGGCTAG) | 0.0111 |
| ACACGACCATGGACCGGTTTTCCCGGTAATCCGTATTTGTC (site ACACGAGCTGA) | 0 |
| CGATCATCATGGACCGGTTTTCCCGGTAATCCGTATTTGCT (site CGGTCATCTAA) | 0.0171 |
| TTTCAGGCATGGACCGGTTTTCCCGGTAATCCGTATTTGAG (site TTTCAGGCTCT) | 0.155 |
| CCGGAAACATGGACCGGTTTTCCCGGTAATCCGTATTTGCA (site CGGGAAACTTG) | 0 |
| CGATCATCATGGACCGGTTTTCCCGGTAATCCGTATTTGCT (site CGCTCATCTAC) | 0.00488 |
| GGGGCACCATGGACCGGTTTTCCCGGTAATCCGTATTTGCG (site GGGGCACCTTG) | 0 |
| GGATAGACATGGACCGGTTTTCCCGGTAATCCGTATTTGCG (site GGATAGACTGG) | 1.52 |
| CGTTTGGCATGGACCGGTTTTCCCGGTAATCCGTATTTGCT (site CTTTTGGCTAG) | 0 |
| ACTCGTGCATGGACCGGTTTTCCCGGTAATCCGTATTTGGT (site ACTAGTGCTAC) | 0.43 |
| ACCTACACATGGACCGGTTTTCCCGGTAATCCGTATTTGGG (site ACCTACACTCC) | 0.0331 |
| TAGGGGACATGGACCGGTTTTCCCGGTAATCCGTATTTGTT (site TAGGGGACTAA) | 1.75 |
| AAGGACCCATGGACCGGTTTTCCCGGTAATCCGTATTTGAA (site AAGGACCCTTT) | 1.1 |
| GGGGCACCATGGACCGGTTTTCCCGGTAATCCGTATTTGGA (site GGGGCACCTTC) | 0.0209 |
| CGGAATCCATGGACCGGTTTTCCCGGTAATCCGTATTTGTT (site CGGAATCCTGA) | 1.65 |
| GTGAAGGCATGGACCGGTTTTCCCGGTAATCCGTATTTGTG (site GTGGAGGCTCA) | 1.02 |
| CGAAAAGCATGGACCGGTTTTCCCGGTAATCCGTATTTGCA (site CGAAAAGCTTG) | 0 |
| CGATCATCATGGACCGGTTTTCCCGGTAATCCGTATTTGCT (site CTATCCTCTAG) | 0 |
| TCATGCTCATGGACCGGTTTTCCCGGTAATCCGTATTTGCA (site TCATCCTCTTG) | 0 |
| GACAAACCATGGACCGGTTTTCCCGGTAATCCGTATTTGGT (site GACAGACCTAC) | 0 |
| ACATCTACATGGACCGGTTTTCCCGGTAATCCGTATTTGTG (site ACATCTACTAA) | 0.044 |
| GTTAGAACATGGACCGGTTTTCCCGGTAATCCGTATTTGGT (site GTTAGAACTTC) | 0.0194 |
| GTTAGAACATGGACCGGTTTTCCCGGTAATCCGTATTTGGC (site TTTAGAACTGC) | 0 |
| CAGGACTCATGGACCGGTTTTCCCGGTAATCCGTATTTGTT (site CAGGACTCTAA) | 2.96 |
| CGAGGATCATGGACCGGTTTTCCCGGTAATCCGTATTTGGG (site CGAGGAGCTCC) | 0 |
| TAATAAGCATGGACCGGTTTTCCCGGTAATCCGTATTTGGG (site TAATTAGCTCC) | 0.507 |
| GTCCCGACATGGACCGGTTTTCCCGGTAATCCGTATTTGCA (site GTCCCGACTTG) | 1.54 |
| AATGCAACATGGACCGGTTTTCCCGGTAATCCGTATTTGCT (site AATGAAACTAG) | 0 |
| GCTTGCTCATGGACCGGTTTTCCCGGTAATCCGTATTTGAT (site GCTTGCGCTAT) | 0.00706 |
| CTAGTATCATGGACCGGTTTTCCCGGTAATCCGTATTTGCC (site CTAGTATCTGT) | 2.66 |
| CTTCCCTCATGGACCGGTTTTCCCGGTAATCCGTATTTGTG (site CTTCCCTCTCA) | 0.257 |
| TTCAATTCATGGACCGGTTTTCCCGGTAATCCGTATTTGCC (site TTCAATTCTGG) | 0 |
| CTACTACCATGGACCGGTTTTCCCGGTAATCCGTATTTGGA (site CTACTAACTTC) | 0.0163 |
| CCCTGTTCATGGACCGGTTTTCCCGGTAATCCGTATTTGGG (site CCCTGTTCTCC) | 0.00741 |
| AATGTACCATGGACCGGTTTTCCCGGTAATCCGTATTTGCT (site AATGTAGCTAG) | 0.00499 |
| GTAGGTGCATGGACCGGTTTTCCCGGTAATCCGTATTTGAC (site GTAGGTGCTGT) | 2.74 |

###

assay: recombinant UMI read abundance after kanamycin selection (control-corrected) (log10(CPM+1)); higher = more efficient recombination; extreme values may be limits of the assay; sequences stand for … in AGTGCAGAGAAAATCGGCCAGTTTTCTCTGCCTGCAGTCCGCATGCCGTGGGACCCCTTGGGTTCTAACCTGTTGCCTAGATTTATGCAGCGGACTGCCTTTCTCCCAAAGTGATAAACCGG…AGGTTGGTTTCACT; site = the 11-nt donor
The reader will find reported recombinant UMI read abundance (log10) values listed item by item below.

| sequence string | recombinant UMI read abundance (log10) |
| --- | --- |
| CCTCCTTCATGGACCGGTTTTCCCGGTAATCCGTATTTGCT (site CCTCCTTCTAG) | 0 |
| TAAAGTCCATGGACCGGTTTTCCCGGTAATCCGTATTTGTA (site TAAAGTCCTTT) | 0.0573 |
| GTACGCACATGGACCGGTTTTCCCGGTAATCCGTATTTGTA (site GTAAGCACTTA) | 0.0204 |
| TAAAAGCCATGGACCGGTTTTCCCGGTAATCCGTATTTGAG (site TAAAAGCCTCT) | 0.525 |
| TATCTCACATGGACCGGTTTTCCCGGTAATCCGTATTTGAC (site TATCTCACTGT) | 2.11 |
| CGTTCGACATGGACCGGTTTTCCCGGTAATCCGTATTTGAG (site CGTTCGACTCT) | 0.635 |
| CTGCTAACATGGACCGGTTTTCCCGGTAATCCGTATTTGGA (site CTACTAACTTC) | 1.16 |
| ATTGCGACATGGACCGGTTTTCCCGGTAATCCGTATTTGGT (site ATTGAGACTAC) | 0.0594 |
| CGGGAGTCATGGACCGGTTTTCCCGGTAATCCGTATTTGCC (site TGGGAGTCTGG) | 0 |
| CAGGAAACATGGACCGGTTTTCCCGGTAATCCGTATTTGCA (site CGGGAAACTTG) | 0 |
| CCTTTGTCATGGACCGGTTTTCCCGGTAATCCGTATTTGGA (site CCTTTGTCTTC) | 0.00278 |
| CAGTCGGCATGGACCGGTTTTCCCGGTAATCCGTATTTGCT (site CAGTCGGCTAG) | 0.438 |
| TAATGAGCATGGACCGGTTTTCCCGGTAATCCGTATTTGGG (site TATTGAGCTCC) | 0.0136 |
| ACAGTATCATGGACCGGTTTTCCCGGTAATCCGTATTTGCG (site ACAGTATCTCG) | 3.51 |
| GTTGTGCCATGGACCGGTTTTCCCGGTAATCCGTATTTGGT (site GTTGTCCCTAC) | 0.0044 |
| TGTACGTCATGGACCGGTTTTCCCGGTAATCCGTATTTGTT (site AGTACGTCTAA) | 0.00241 |
| TTGCTGACATGGACCGGTTTTCCCGGTAATCCGTATTTGTG (site TTGCTGACTCA) | 0.12 |
| AGGGAGTCATGGACCGGTTTTCCCGGTAATCCGTATTTGCC (site GGGGAGTCTGG) | 0 |
| GGGGAGTCATGGACCGGTTTTCCCGGTAATCCGTATTTGCC (site CGGGAGTCTGG) | 0 |
| GAACGTGCATGGACCGGTTTTCCCGGTAATCCGTATTTGTC (site GAACGTGCTGA) | 2.1 |
| GACAATTCATGGACCGGTTTTCCCGGTAATCCGTATTTGAC (site GACAATTCTGT) | 0 |
| TAGCTTACATGGACCGGTTTTCCCGGTAATCCGTATTTGTC (site TAGCTTACTGA) | 1.56 |
| TGATCCTCATGGACCGGTTTTCCCGGTAATCCGTATTTGCT (site TGATCCTCTAG) | 1.81 |
| TGGCCAGCATGGACCGGTTTTCCCGGTAATCCGTATTTGGC (site TGGCCTGCTGC) | 0.017 |
| GGCACGACATGGACCGGTTTTCCCGGTAATCCGTATTTGCG (site GGCACGACTCG) | 0.903 |
| ACGGAACCATGGACCGGTTTTCCCGGTAATCCGTATTTGAG (site ACGGAACCTCT) | 0 |
| ATCGACCCATGGACCGGTTTTCCCGGTAATCCGTATTTGGT (site ATCGACCCTAC) | 0 |
| GGGGAGGCATGGACCGGTTTTCCCGGTAATCCGTATTTGTG (site GGGGAGGCTCA) | 0.851 |
| CCCTCCTCATGGACCGGTTTTCCCGGTAATCCGTATTTGCC (site CACTCCTCTGG) | 0.544 |
| TCCTTGACATGGACCGGTTTTCCCGGTAATCCGTATTTGCT (site TGCTTGACTAG) | 0 |
| ACAAGAACATGGACCGGTTTTCCCGGTAATCCGTATTTGAG (site ACGAGAACTCT) | 1.41 |
| CGTGGAACATGGACCGGTTTTCCCGGTAATCCGTATTTGTC (site CGTGGAACTTA) | 0.519 |
| AATGTAACATGGACCGGTTTTCCCGGTAATCCGTATTTGCG (site AATGTAACTTG) | 0.00267 |
| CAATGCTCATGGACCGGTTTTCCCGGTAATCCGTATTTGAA (site CGATGCTCTTT) | 0.0125 |
| ATAGTATCATGGACCGGTTTTCCCGGTAATCCGTATTTGCA (site AGAGTATCTTG) | 2.15 |
| GTGAATGCATGGACCGGTTTTCCCGGTAATCCGTATTTGGT (site GTGCATGCTAC) | 0.318 |
